Entries and their measured Migration rate (%) (mean ± SD, P) follow.
- Test system: human prostate cancer cells (22RV1)
- experimentNotes: scratch assay, migration of 22RV1 cells
- Type: cell-based
- experimentalConditions: 22RV1, 10 μM, 48 hours; control group 25.41 ± 5.01
- Description: In the scratch assay, the cell migration rate was negatively correlated with the inhibitory effect of the drug component on tumor cell migration ability. […] ImageJ software was used to count the migration distance of the cells, and the cell migration rate was calculated as: cell migration rate (%)=(width of original scratch−width of current scratch)/width of original scratch×100. […]
Ends that are not written are not given here. PEG = not defined here

Below are worked cases with known answers.
Could you please provide reported Migration rate (%) (mean ± SD, P) for N48: SEQ ID NO: 1 with A7R, deletion of position 11 and position 18, PEG modification at the carboxyl terminal (YRVRFLRKENTQDAED-{PEG}; reading uncertain) ? Thanks!
5.61 ± 3.14,** %

For the substance N23: SEQ ID NO: 1 with substitution A7R, deletion of position 11 and of positions 15-18 (YRVRFLRKENTQDAED) , give its reported Migration rate (%) (mean ± SD, P).
5.7 ± 3.23,** %

Next:
Retrieve Migration rate (%) (mean ± SD, P) measured for N22: SEQ ID NO: 1 with substitution A7R, deletion of three amino acids at the amino terminal and of positions 15-18 (RFLRKENVTQD) and print it.
6.10 ± 2.72,** %

* * *

- Tested on: human pancreatic cancer cells (PANC-1)
- experimentNotes: transwell invasion assay, PANC-1 cells
- Type: cell-based
- experimentalConditions: PANC-1 transwell invasion, 10 μM, 24 hours; control group 727 ± 68
Ends that are not written are not given here. PEG = not defined here
In this section, each of the substances is paired with its reported Number of cells (mean ± SD, P), invaded cells.

Look up and report measured Number of cells (mean ± SD, P), invaded cells for this entry: N11: SEQ ID NO: 1 with deletion of positions 15-18 and 1-3 and PEG modification at the amino terminal ({PEG}-RFLAKENVTQD; reading uncertain)
66 ± 14,****

For the substance N3: SEQ ID NO: 1 with deletion of position 18 and PEG modification at the amino terminal ({PEG}-YRVRFLAKENVTQDAED; reading uncertain) , report Number of cells (mean ± SD, P), invaded cells.
111 ± 10,****

Return Number of cells (mean ± SD, P), invaded cells for the following substance: N37: SEQ ID NO: 1 with addition of two amino acids to the carboxyl terminal and PEG modification at the amino terminal ({PEG}-YRVRFLAKENVTQDAEDNCT; reading uncertain)
359 ± 34,***

# return recorded Number of cells (mean ± SD, P), invaded cells for entry N23: SEQ ID NO: 1 with substitution A7R, deletion of position 11 and of positions 15-18 (YRVRFLRKENTQDAED)
196 ± 26,****

Complete the entry with Number of cells (mean ± SD, P), invaded cells for N47: SEQ ID NO: 1 with N18R, deletion of positions 1-2, one amino acid added and PEG at the carboxyl terminal (VRFLAKENVTQDAEDRC-{PEG}; reading uncertain)
133 ± 29,****

***
Answer with reported Number of cells (mean ± SD, P), invaded cells of N7: SEQ ID NO: 1 with addition of one amino acid at the carboxyl terminal and substitution A15R (YRVRFLAKENVTQDREDNC)
70 ± 17,****

Quick one: give measured Number of cells (mean ± SD, P), invaded cells for N10: SEQ ID NO: 1 with deletion of positions 15-18 and 1-3 and PEG modification at the carboxyl terminal (RFLAKENVTQD-{PEG}; reading uncertain)
159 ± 12,****

Give Number of cells (mean ± SD, P), invaded cells for N43: SEQ ID NO: 1 with addition of one amino acid at the amino terminal, deletion of position 18, PEG at the carboxyl terminal (RYRVRFLAKENVTQDAED-{PEG}; reading uncertain)
251 ± 10,****
